Molecular target: T1, cynomolgus monkey IL-2Rβ/CD122 subunit (cynomolgus monkey, UniProt Q38J85 27-239, limits assumed)
T1 construct: also called Cyno IL-2R subunit
T1 sequence (looked up): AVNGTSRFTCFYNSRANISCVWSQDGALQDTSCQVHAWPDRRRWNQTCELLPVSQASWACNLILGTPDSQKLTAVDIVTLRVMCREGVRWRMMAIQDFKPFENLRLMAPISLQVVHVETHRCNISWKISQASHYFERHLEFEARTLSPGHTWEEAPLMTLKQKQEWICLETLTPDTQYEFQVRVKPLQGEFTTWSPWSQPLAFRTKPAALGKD
Assay: ELISA, bivalent VHH-hFc
Result Type: pEC50
In simple prose, pEC50 is minus the logarithm base ten of a concentration in moles per litre.

# input binder: 168-MP02B09 VHH-hFc, monospecific bivalent (Fc fusion, IgG1 Fc LALA-PG; not shown: human IgG1 CH2 and CH3 domains (Fc)) EVQLVESGGGLVQAGGSLRLSCAASGRTFSTTEMGWFRQAPGKEREFVAAITWTGRGTMYAESVEGRFTISRENAKNMVYLQMNSLKPEDTAIYYCAAARRGRAAVRSEGGYDFWGQGTQVTVSS ; wanted: its pEC50
9.90

Need pEC50 of 184-MP02E11 VHH-hFc, monospecific bivalent (Fc fusion, IgG1 Fc LALA-PG; not shown: human IgG1 CH2 and CH3 domains (Fc)) QVQLQESGGGLVQAGGSLRLSCAASGRTFSNYVMAWFRQAPGKEREFVGAITQTGRGTFYADSVEGRFTISRINDKNTVYLQMNSLKPEDTAVYYCSAPRSGRAGTRNQMDYEYWGQGTQVTVSS , thanks.
10.13

Could you tell me which pEC50 is on file for 26-MP06A07 VHH-hFc, monospecific bivalent (Fc fusion, IgG1 Fc LALA-PG; not shown: human IgG1 CH2 and CH3 domains (Fc)) QVQLQESGGGLVQAGGSLRLSCAASGDVFVRYTMAWFRQAPGKEREFVASVTDSGRTTEYVDSVKGRFTVSRDNAKNTAYLQMNNLKPEDTAIYYCAANTDYFQIRSLDLNTWGQGTQVTVSS ?
9.86

What does the data say about its pEC50? Entry: 126-MP02A03 VHH-hFc, monospecific bivalent (Fc fusion, IgG1 Fc LALA-PG; not shown: human IgG1 CH2 and CH3 domains (Fc)) QVQLVESGGGLVQPGGSLRLSCAASGFTFSNYAMSWVRQAPGKGLEWVSSITGAGRGTYYAESVKGRFTISRDNDKNTLYLQMNSLKPEDTAVYYCAKYDSSTFYPPTPARGIADRGQGTRVTVSS
10.19
